- experiment_description: yeast display, Sf9 membrane polyspecificity reagent, FACS + sequencing; frameworks hold sequencing errors

query_sequence	polyreactivity (PSR sort gate)
QVQLVESGGGLVQAGGSLRLSCAASGSILRSNAMGWYRQAPGKERELVATITNSGGSTYADSVKGCFTISRDNAKNTVYLQMNSLKPEDTAVYYCAKAGAGESIAKYDYWGQGTQVTVSS	low polyreactivity
QVQLVESGGGLVQAGGSLRLSCAASGSIFYSYAMGWYRQAPGKERELVAAITSNAGGITRYADSVKGRFTISRDNAKNTVYLQMNSLKPEDTAVYYCAARGHYYTRYWGQGTQVTVSS	high polyreactivity
QVQLVESGGGLVQAGGSLSLSCAASGRTFAPYAMGWYRQAPGKEREFVAGITWSSSSTYADSVKGRFTISRDNAKITVYFQMNSLKPEDPAVYYCAASHAKGGNRHYYWGQGTQVTVSS	high polyreactivity
QVQLVESGGGLVQAGGSLRLSCAASGRILPYYAMGWYRQEPGKERELVAAITGGGGSTYYADSVKGRFTISRDNAKNTVYLQMNSLKPEDTAVYYCAKPRGRASLALYRFSLYYYWGQGTQVTVSS	high polyreactivity
QVQLVESGGGLVQAGGSLRLSCAASGRIFSFNAMGWYRQAPGKERELVATIRTDGTTNYADSVKGRFTISRDNAKNTVYLQMNSLKPEDTAVYYCAANRKRFAFGYWGQGTQVTVSS	high polyreactivity
QVQLVESGGGLVQAGGSLRLSCAASGIIFPWYAMGWYRPAPGKERELVAAISGSGGSTYYADSVKGRFTISRDNAKNTVYLQMNSLKPEDTAVYYCAAYPRGSQRYNYGGQGTQVTVSS	high polyreactivity
QVQLEESGGGLVQAGGSLRLSCAASGSTLNYYAMGWYRQAPGKERELVAAITWSGGSTSYADSVKGRFTISRDKAKNTVYLQMNSLKQEDTAVYYCATDFPTVQLYDTDWLSSDMGYWGQGTQVTVSS	low polyreactivity
QVQLVESGGGLVQAGGSLRLSCAASGRTFYVYAMGWYRQAPGKERELVAAITKNGGNTYYADSVKGRFTISRDNAKNTVYLQMNSLKPEDTAVYYCAADKQGFLISYTGYDYWGQGTQVTVSS	low polyreactivity
QVQLVESGGVLVQAGGSLRLSCAASGFIFSSNAMGWCREAPGKERELVAAITGGGGRTRYADSVKGRFTISRDNAKNTVYLQMNSLKPEDTAVYYCAAEVYSIWWYDYWGQGTQVTVSS	high polyreactivity
QVQLVESGGGLVPAGGSLRLSCAASGFTFPAYTRGWYRPAPGKERELVAAITSSGGNTYYADSVKGRFTISRDNAKNTVYLQMNSLKPEDTAVYYCNADASSSPYTDRQYIGADDSWGQGTQVTVSS	low polyreactivity
QVQLVESGGGLVQAGGTLRLSCAASGSISIRNAMGWYRQAPGKERELVAAITYSGGSTYYADSVKGRFTISRDNAKNTVYLQMNSLKPEDTAVYYCAKDHYRFRYDYWGQGTQVTVSS	low polyreactivity
